Tested on: HT29 colon
Test: NCI tumour cell line growth inhibition, 48 h
TGI overview
Number in nM, nothing else.

(Q) I am curious: what TGI value has been reported for `O=C1c2cccc3cc4ccccc4c(c23)C(=O)N1CCCNCCNCCCN1C(=O)c2cccc3cc4ccccc4c(c23)C1=O` ?
(A) 555

Lab note: next compound to report on.
(Q) Can you share its TGI? I mean this compound: C[As](C)SCC(COC(=O)c1ccccc1)OC(=O)c1ccccc1 (stereo not given)
(A) 2260

====

Tested on: 786-0 renal
Experiment: NCI tumour cell line growth inhibition, 48 h; in the data active means GI50 below about 0.43 µM; inactive means the rest
One label from this list, please: active, inactive

(Q) GET /call?item= `O=C(/C=C/CN1CCCCC1)Nc1cc2c(Nc3ccc(F)c(Cl)c3F)ncnc2cc1OCCOC(F)F` returns the recorded outcome of this test.
(A) inactive

(Q) Status in this test for `COC(=O)[C@@H](C)C[C@H](Cc1ccccc1)NC(=O)c1cccc([C@@H](C[C@H](C(C)C)N(C)C(=O)[C@@H](NC(=O)[C@H]2CCCCN2C)C(C)C)OC(C)=O)n1` ?
(A) active

(Q) Each compound tested received a call. Report the one for `Cc1nc2cc(NC(=O)CN3CCN(CCN4C(=O)c5cccc6cccc(c56)C4=O)CC3)ccc2s1` .
(A) inactive

(Q) Lab log entry: `N#Cc1ccccc1C#C/C=C\C#Cc1cnccn1` — outcome as called in the assay?
(A) inactive

(Q) What outcome does the record of this test show for Cc1cc2c(C#N)n3c(c2cc1C)C(=O)C(c1ccccc1)Oc1ccccc1-3 (configuration not stated) ?
(A) inactive

(Q) Which outcome was assigned to COc1ccc(C2CC(c3ccc(OC)c(OC)c3)=NN2C(=O)c2cc(OC)c(OC)c(OC)c2)cc1 (configuration not stated) in this test?
(A) inactive

(Q) Could you please tell me the result logged for CCOC(=O)C(Cc1ccc(N(CCCl)CCCl)cc1)NC(=O)C(CC(C)C)NC(C)=O (configuration not stated) in this assay?
(A) inactive

(Q) For COc1ccc(/C=C2\CC(C)CC3C2=NN(C(C)=O)C3c2ccc(OC)c(OC)c2)cc1OC (configuration not stated) , which call appears in the assay record?
(A) inactive

(Q) Recorded test outcome, item `Cn1cnc2nc(Cl)nc(Cl)c21`
(A) inactive

(Q) Field: outcome | Entry: `Cn1cc(C2=C(c3cn(CCCSC(=N)N)c4ccccc34)C(=O)NC2=O)c2ccccc21`
(A) inactive

(Q) Outcome logged for `CN1CCN(Cc2ccc(NC(=O)c3cncc(C#Cc4c(N)ncc5ccc(F)cc45)c3)cc2C(F)(F)F)CC1` in this assay:
(A) inactive

(Q) Called result for `N#Cc1c(-c2ccc(Cl)cc2)n([O-])c2ccccc2[n+]1=O`
(A) inactive

====

Tested on: SR leukemia
Assay: NCI tumour cell line growth inhibition, 48 h
Each entry below carries its recorded TGI.

Consider the reported TGI for these molecules:
(Q) Given the molecule S=C(N/N=C/c1ccccc1)NC1CC(c2ccccc2)Oc2ccccc21 (stereo unspecified) , what is its reported TGI?
(A) > 100 µM

(Q) Look at this molecule and give its reported TGI. `COC[C@@H](N=Cc1ccc(OC)cc1)C(C)C`
(A) > 100 µM

(Q) Entry `O=C1c2c(ccc3c2CCCC3)CC12Cc1ccccc1C2` has what TGI?
(A) > 27.6 µM

***
(Q) Using the record for `CCCCCC(=O)OC[n+]1ccc2c(C)c3[nH]c4ccccc4c3c(C)c2c1` , report its TGI.
(A) 12 µM

(Q) Need TGI, item CCN(CC)CCCC(C)NC(=S)N/N=C(\C)c1ccccn1 (stereo unspecified)
(A) > 100 µM

(Q) # lookup: TGI of `Nc1cc(N)c2nc(-c3ccccc3)c(Sc3ccc(F)cc3)nc2c1`
(A) > 100 µM
